Values from patent US8394792B2

Molecular target: CYP2C9 (Homo sapiens)
Experiment: biochemical
OUTCOME_MEASURE: IC50 (µM)

Some solved entries appear below for comparison.
The reported value for O=C(c1cc(Br)c(O)c(Br)c1)N1CCOc2ncc(-c3ccc(OC(F)(F)F)cc3)cc21 in terms of IC50 is 1.34

Looking up COc1c(Br)cc(C(=O)N2CCOc3ncc(-c4cccc(N(C)C)c4)cc32)cc1Br , I found its IC50 recorded as 1.68

The measured IC50 associated with O=C(c1cc(Br)c(O)c(Br)c1)N1CCOc2ncc(-c3ccoc3)cc21 reads 10.3

1. O=C(c1ccc(O)c(Br)c1)N1CCOc2cnccc21 [Compound 16]
2. O=C(c1cc(Br)c(O)c(Br)c1)N1CCOc2ncc(-c3cccc(C(F)(F)F)c3)cc21
query: Returns: the argument ( 1 or 2 ) having the larger IC50. Indicate your choice by writing its label.
result: 1

###

Assay: Test for solubility according to pH
Assay type: physicochemical
Settings: 37 °C, pH 6.8, aqueous buffer, thermodynamic from solid, second solution pH about 6.8, 2 mg/mL, 37° C. 2 hours; read-out: Solubility (μg/mL) pH 6.8
OUTCOME_MEASURE: solubility at 2 h (µg/mL)

Known solubility at 2 h results, listed for orientation:
Lab note: O=C(c1ccc(O)c(Br)c1)N1CCOc2cnccc21 gave solubility at 2 h of 473

Measured solubility at 2 h of COc1cc(C(=O)N2CCOc3ccncc32)on1 : 1010

So, Br.O=C(c1cc(Cl)c(O)c([N+](=O)[O-])c1)N1CCOc2cnccc21 ? Its solubility at 2 h was 1890

I. O=C(c1cc(Br)c(O)c(Br)c1)N1CCOc2ncccc21
II. Cc1ccc2c(n1)OCCN2C(=O)c1cc(Br)c(O)c(Br)c1
query: Hi! Which is lower in terms of solubility at 2 h, the first one I or the second one II ? In your reply, give the label of the chosen option.
result: II
(II: 109 µg/mL, I: 277 µg/mL)

###

# key: entry, value: pIC50
Target: CYP2C9 (Homo sapiens)
Test: biochemical
pIC50: −log10 of the molar value.

Recorded results for 8 compounds are shown here.
So, COc1c(Br)cc(C(=O)N2CCOc3ccncc32)cc1Br [Compound 2] ? Its pIC50 was < 4.92

// sample COc1cncc(-c2cnc3c(c2)N(C(=O)c2cc(Br)c(O)c(Br)c2)CCO3)c1 [Compound 68] , its pIC50 was 5.86

Per the records, this compound ( Cc1cnc2c(c1)N(C(=O)c1cc(Br)c(O)c(Br)c1)CCO2 [Compound 27-2] ) has pIC50 equal to < 4.70

pIC50 reading for COc1cc(C(=O)N2CCOc3ccncc32)on1 [Compound 43] : < 4.70

Reported pIC50 of Cc1ccc2c(n1)OCCN2C(=O)c1cc(Br)c(O)c(Br)c1 [Compound 7] : < 4.70

Short answer for O=C(c1cc(Br)c(O)c(Br)c1)N1CCOc2ncc(-c3cccnc3)cc21 [Compound 52] : pIC50 was < 4.70

Entry COc1c(Br)cc(C(=O)N2C(=O)COc3ccncc32)cc1Br [Compound 57] — recorded pIC50 = < 4.70

pIC50 in this record for O=C(c1cc(Cl)c(O)c(Cl)c1)N1CCOc2ccncc21 [Compound 39] : < 4.70

Further cases:
compound O=C(c1ccc(O)c(Cl)c1)N1CCOc2cnccc21 [Compound 34] , pIC50 observed: 4.71

###

Target: hURAT1 (Homo sapiens, UniProt Q96S37)
Construct: expressed in transfected cells; host or cells: HEK293 (human kidney cell line), transient transfection with Fugene6
Sequence (Q96S37 whole entry): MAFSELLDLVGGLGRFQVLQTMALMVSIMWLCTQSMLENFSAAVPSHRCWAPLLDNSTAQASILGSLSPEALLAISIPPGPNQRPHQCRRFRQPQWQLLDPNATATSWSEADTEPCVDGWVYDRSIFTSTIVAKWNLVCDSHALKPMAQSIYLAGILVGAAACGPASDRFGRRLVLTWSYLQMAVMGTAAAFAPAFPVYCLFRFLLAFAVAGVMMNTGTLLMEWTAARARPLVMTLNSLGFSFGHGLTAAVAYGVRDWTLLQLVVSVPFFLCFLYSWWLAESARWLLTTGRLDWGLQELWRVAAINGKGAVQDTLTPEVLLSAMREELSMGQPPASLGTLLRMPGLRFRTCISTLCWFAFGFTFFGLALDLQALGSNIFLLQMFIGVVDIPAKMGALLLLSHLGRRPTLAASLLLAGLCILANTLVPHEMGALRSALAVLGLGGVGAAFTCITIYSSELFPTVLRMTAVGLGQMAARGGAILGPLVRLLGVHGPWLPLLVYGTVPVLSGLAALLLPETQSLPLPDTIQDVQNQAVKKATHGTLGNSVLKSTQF
Experiment: Test for inhibiting urate reuptake activity via hURAT1 (uric acid transport assay in hURAT1-overexpressed HEK293 cell line)
Type: cell-based
Settings: IC50 (μM) hURAT, level of uric acid reuptake inhibition, hURAT1-overexpressed HEK293 cells, [14C]-uric acid uptake, 100 μM uric acid
OUTCOME_MEASURE: IC50 (µM)
Just the number please, in µM, no unit attached.

In plain terms, Br.O=C(c1cc(Br)c(O)c(Br)c1)N1CCOc2ccncc21 [Compound 3] has a documented IC50 of 0.0165

###

Test: Test for solubility according to pH
Assay type: physicochemical
Settings: second solution pH about 6.8, 2 mg/mL, 37° C. 2 hours
OUTCOME_MEASURE: Solubility (μg/mL) pH 6.8

Worked examples, 2 compounds total:
Memo: O=C(c1cc(Br)c(O)c(Br)c1)N1CCOc2ccncc21 [Compound 4] , reported Solubility (μg/mL) pH 6.8: 970

The value of Solubility (μg/mL) pH 6.8 measured for the compound O=C(c1cc(Br)c(O)c(Br)c1)N1CCOc2ccncc21 [Compound 71] turned out to be 344.7

A. O=C(c1cc(Cl)c(O)c(Cl)c1)N1CCOc2cnccc21 [Compound 15]
B. O=C(c1cc(Cl)c(O)c(Cl)c1)N1CCOc2cnccc21 [Compound 41]
query: Of the two listed items, which has the higher Solubility (μg/mL) pH 6.8? First: A Second: B Indicate your choice by writing its label.
result: A
(A: 453 μg/mL, B: 156.54 μg/mL)

###

Assay: Test for solubility according to pH
Type: physicochemical
Settings: 37 °C, pH 1.2, simulated gastric fluid, thermodynamic from solid, first solution pH about 1.2, 2 mg/mL, 37° C. 2 hours; read-out: Solubility (μg/mL) pH 1.2
OUTCOME_MEASURE: solubility at 2 h (µg/mL)

Check out these entries, answers already filled in.
Lab note: N#Cc1cnc2c(c1)N(C(=O)c1cc(Br)c(O)c(Br)c1)CCO2 gave solubility at 2 h of 6.4

Given item O=C(c1ccc(O)c(Br)c1)N1CCOc2cnccc21 , the value recorded as its solubility at 2 h is 1320

Data point: Cc1cnc2c(c1)N(C(=O)c1cc(Br)c(O)c(Br)c1)CCO2 ; solubility at 2 h = 207

Lab note: measured solubility at 2 h of COC(=O)COc1c(Br)cc(C(=O)N2CCOc3ccncc32)cc1Br was 1250

# molecule O=C(c1cc(Br)c(O)c(Br)c1)N1CCOc2ncncc21 ; its solubility at 2 h = 34.8

So for O=C(c1cc(Cl)c(O)c(Cl)c1)N1CCOc2cnccc21 , the logged solubility at 2 h turned out to be 1510

// O=C(c1cc(Cl)c(O)c(Cl)c1)N1CCOc2ccncc21 : solubility at 2 h value = 1340

// solubility at 2 h value for O=C(c1cc(Cl)c(O)c([N+](=O)[O-])c1)N1CCOc2ccncc21 : 1480

Measured solubility at 2 h, Cc1ccc2c(n1)OCCN2C(=O)c1cc(Br)c(O)c(Br)c1 : 106

The molecule listed as O=C(c1cc(Cl)c(O)c([N+](=O)[O-])c1)N1CCOc2cnccc21 shows solubility at 2 h equal to 1560

I. O=C(c1cc(Cl)nc(Cl)c1)N1CCOc2ccncc21
II. O=C(c1cc(Br)c(O)c(Br)c1)N1CCOc2ncccc21
III. O=C(c1cc(Br)c(O)c(Br)c1)N1CCOc2ccnc(Cl)c21
query: List from greatest to least solubility at 2 h. Response format: the labels, sorted as the prompt asks.
result: I, II, III
(I: 1850 µg/mL, II: 56.1 µg/mL, III: 7.2 µg/mL)

P. O=C(c1cc(O)no1)N1CCOc2ccncc21
Q. O=C(Cc1cc(Br)c(O)c(Br)c1)N1CCOc2ccncc21
query: Larger number for solubility at 2 h: P , or Q ? Respond using the label that marks the chosen record.
result: P

###

# maps each entry to its IC50
Target: CYP2C9 (Homo sapiens, UniProt P11712)
Sequence (P11712 whole entry): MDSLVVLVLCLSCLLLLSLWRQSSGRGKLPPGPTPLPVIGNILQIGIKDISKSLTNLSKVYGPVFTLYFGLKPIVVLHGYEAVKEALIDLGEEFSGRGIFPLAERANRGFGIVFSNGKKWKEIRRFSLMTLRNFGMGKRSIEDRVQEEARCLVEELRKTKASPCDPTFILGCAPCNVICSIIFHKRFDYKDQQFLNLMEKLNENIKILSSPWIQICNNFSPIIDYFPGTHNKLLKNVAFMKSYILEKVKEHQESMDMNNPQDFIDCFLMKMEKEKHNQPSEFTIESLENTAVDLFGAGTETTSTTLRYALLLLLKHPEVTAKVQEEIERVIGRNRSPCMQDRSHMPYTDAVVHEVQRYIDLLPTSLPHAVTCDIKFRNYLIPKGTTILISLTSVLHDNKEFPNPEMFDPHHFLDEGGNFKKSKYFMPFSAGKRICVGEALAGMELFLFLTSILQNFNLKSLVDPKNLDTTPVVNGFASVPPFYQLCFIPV
Assay: biochemical

Here is how some compounds turned out for IC50.
Value (IC50, CYP2C9 (Homo sapiens, UniProt P11712)) for record O=C(c1cc(Br)c(O)c(Br)c1)N1CCOc2ccnc(Cl)c21 = > 40 µM

For O=C(c1ccc(O)c(Br)c1)N1CCOc2ccncc21 [Compound 38] on CYP2C9 (Homo sapiens, UniProt P11712), measured IC50 was > 20 µM

I looked up O=C(c1cc(Cl)c(O)c(Cl)c1)N1CCOc2cnccc21 [Compound 15] and its IC50 for CYP2C9 (Homo sapiens, UniProt P11712) was 4.5 µM

Lab entry: CYP2C9 (Homo sapiens, UniProt P11712) assay, compound COc1c(Br)cc(C(=O)N2CCOc3ncc(-c4cccc([N+](=O)[O-])c4)cc32)cc1Br , IC50 = > 20 µM

Okay, now this compound:
Field IC50 (CYP2C9 (Homo sapiens, UniProt P11712)), entry Cc1cnc2c(c1)N(C(=O)c1ccc(O)c(C(F)(F)F)c1)CCO2 : > 20 µM

###

Molecular target: CYP2C9 (Homo sapiens, UniProt P11712)
Assay: biochemical
pIC50: −log10 of the molar value.
OUTCOME_MEASURE: pIC50

Some entries whose results are on file:
The reported pIC50 of the compound O=C(c1cc(Br)c(O)c(Br)c1)N1CCOc2ccncc21 [Compound 4] was 4.61

Memo: Oc1c(Br)cc(C(=S)N2CCOc3ccncc32)cc1Br [Compound 51] , reported pIC50: 5.06

For this compound ( O=C(c1cc(Br)c(O)c(Br)c1)N1CCOc2ncc(C(F)(F)F)cc21 ), measured pIC50 is 5.02

Measured pIC50, Br.O=C(c1cc(Br)c(O)c(Br)c1)N1CCOc2ccncc21 : 4.61

Entry O=C(c1cc(Br)c(O)c(Br)c1)N1CCOc2c1cnc1ccccc21 , pIC50 reported as 5.05

P. O=C(c1cc(Br)c(O)c(Br)c1)N1CCOc2ncc(-c3cncc4ccccc34)cc21
Q. O=C(c1cc(Cl)c(O)c([N+](=O)[O-])c1)N1CCOc2cnccc21
query: Name the one with the greater pIC50 value, either P or Q as given. API: response body contains the label of the selected item.
result: P
